Taken from PubChem BioAssay (NCI).

Assay: NCI Yeast Anticancer Drug Screen. Data for the cln2 rad14 strain (AID 165)
Details: S. cerevisiae cln2 rad14 strain, at 50.0 µM
Compounds without any hit were thinned out: in the full panel of roughly 79,000, 15% have a hit. Active and inactive are the calls of the source. Cut-off read from the data, not from the text of the source: active = growth inhibition above about 70%; inactive = the rest.
Outcome codes: TRUE = active, FALSE = inactive

molecule: C[As](C)SCC1OC2OC(C)(C)OC2C2OC(C)(C)OC12 (stereo unspecified)
assigned.category: TRUE
--
molecule: O=[C-]CCCCCC[C-]=O.[C-]#[O+].[C-]#[O+].[C-]#[O+].[C-]#[O+].[Fe+6].[Fe+6].[c-]1[c-][c-][cH-][c-]1.[c-]1[c-][c-][cH-][c-]1
assigned.category: TRUE
--
molecule: O=C1C2CCN(CC2)C1CN1CCOCC1 (stereo unspecified)
assigned.category: FALSE
--
molecule: C[CH2][Sn]1([CH2]C)[c]2ccccc2Oc2cccc[c]21
assigned.category: TRUE
--
molecule: CCCCCCC1CCC2CCCC(C)N12 (stereo unspecified)
assigned.category: TRUE
--
molecule: C[C@]12CCC3[C@@H](CC[C@@H]4c5nonc5CC[C@]34C)C1CCC2=O (stereo partly specified)
assigned.category: FALSE
--
molecule: [Br][Hg][CH2]COC[CH2][Hg][Br]
assigned.category: TRUE
--
molecule: COC(=O)C(Cl)(Br)CCl (stereo unspecified)
assigned.category: FALSE
--
molecule: O=C(O)c1cc[c]([Hg])cc1
assigned.category: FALSE
--
molecule: CCN(Cc1ccccc1)CC(O)c1ccc(Cl)c(Cl)c1 (stereo unspecified)
assigned.category: FALSE
--
molecule: ClCCN(CCCl)c1ccc(C=NCCCCN=Cc2ccc(N(CCCl)CCCl)cc2)cc1
assigned.category: TRUE
